# Tested on: ERK1;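 also: KINOMEscan kinase panel screen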
# Construct: gene MAPK3
# CONDITION_PARAMETERS: concentration: 1 μM, replicates: in singlicate; n = 1
READOUT_NAME: %Inh (%)
Express the result in % but write the number alone.

Req: Quick one: %Inh for `CS(=O)(=O)Cc1ccc(Nc2nccc(-c3c(-c4cccc(NC(=O)C5CCCCC5)c4)nn4ncccc34)n2)cc1` ?
Resp: 2

Req: Quick one: %Inh for `CS(=O)(=O)CCNCc1nc(-c2ccc3ncnc(Nc4ccc5c(cnn5Cc5ccccc5)c4)c3c2)cs1.Cl.Cl` ?
Resp: 4

Req: Quick one: %Inh for `c1ccc(-c2ccnc3[nH]ccc23)cc1` ?
Resp: 0

Req: Quick one: %Inh for `CC(C)c1ccc(O)cc1Nc1ccnc2ccc(C(F)(F)F)cc12` ?
Resp: 0

Req: Quick one: %Inh for `COc1ccc(CSc2nnc(-c3ccc4c(c3)CCO4)o2)cc1` ?
Resp: 0

Req: Quick one: %Inh for `CC(C)c1cc(-c2ccc3c(N)n[nH]c3c2)nc(N)n1` ?
Resp: 1

Req: Quick one: %Inh for `FC(F)(F)c1ccccc1-c1cc(-c2c[nH]nc2-c2ccccn2)ccn1` ?
Resp: 0

Req: Quick one: %Inh for Cn1cncc1C(=O)NC1CCN(c2ccnc(Nc3ccc(F)cc3)n2)C1 (stereo not drawn) ?
Resp: 0

Req: Quick one: %Inh for CC(=O)c1cccc(NC(=O)NC2CCN(c3ccnc(Nc4ccc(F)cc4)n3)C2)c1 (stereo not drawn) ?
Resp: 0

Req: Quick one: %Inh for `Cn1cnc2c(N)ncnc21` ?
Resp: 77

Req: Quick one: %Inh for `O=C(Nc1n[nH]c2nc(-c3cccs3)c(Br)cc12)C1CCCC1` ?
Resp: 0

Req: Quick one: %Inh for `COc1ccc(CSc2nnc(-c3ccc4ncsc4c3)o2)cc1C(F)(F)F` ?
Resp: 0

Req: Quick one: %Inh for `COc1cccc(C2=C(Nc3cc(Cl)c(O)c(Cl)c3)C(=O)NC2=O)c1` ?
Resp: 0

Req: Quick one: %Inh for `CNCc1ccc2nc(NC(=O)c3ccc(C(C)(C)C)cc3)cn2c1` ?
Resp: 1

Req: Quick one: %Inh for COc1ccc(Nc2nccc(N3CCC(NC(=O)C(C)c4ccc(Cl)cc4)CC3)n2)cc1 (stereo not drawn) ?
Resp: 0

Req: Quick one: %Inh for `Cl.Cl.Cl.N#Cc1ccc(CCNc2nccc(-c3cccc(CN4CCNCC4)c3)n2)cc1` ?
Resp: 0

Req: Quick one: %Inh for `CS(=O)(=O)CCNCc1nc(-c2ccc3ncnc(Nc4ccc(OCc5ccccc5)c(Cl)c4)c3c2)cs1.Cl` ?
Resp: 0

Req: Quick one: %Inh for `COc1cccc(NC(=O)Nc2ccc(C)c(-c3ccc(C(=O)Nc4ccncc4)cc3)c2)c1` ?
Resp: 7
